Test system: UACC-257 melanoma
Experiment: NCI tumour cell line growth inhibition, 48 h; in the data active means GI50 below about 0.43 µM; inactive means the rest
Pick from active, inactive when you respond.

Use the examples below as a reference point.
COc1ccc(C2=C(N3CCc4ccccc43)C(=O)NC2=O)cc1 | inactive
CCCCCCCCCCCCCC[n+]1cccc(C(N)=O)c1 | inactive
COc1cc2nc(-c3ccc(C(F)(F)F)cc3)cc(OCCCN3CCCC3)c2cc1OC | inactive
CCNCCNc1cc(-c2ccc(C#N)cc2)c(C#N)c2nc3ccccc3n12 | inactive

Input line: Assay outcome for CC(=O)Oc1c(C)c(C)c2c(c1C)CCC(C)(CC(=O)OCCCCCCCCCCC[P+](c1ccccc1)(c1ccccc1)c1ccccc1)O2 (stereo not given) : what was it?
Output line: active

Input line: Which outcome was assigned to c1ccc(-c2nc(N3CCCNCC3)c3nc(-c4ccccc4)oc3n2)cc1 in this test?
Output line: inactive

Input line: Could you please tell me the result logged for Fc1ccc2nc(-c3cc(-c4ccc5c(c4)OCO5)n[nH]3)[nH]c2c1 in this assay?
Output line: inactive

Input line: Identify the outcome logged in this assay for the molecule shown: COC(=O)c1ccc2c(c1)C(=O)c1c-2n(CCCN=[N+]=[N-])c(=O)c2cc([N+](=O)[O-])ccc12
Output line: inactive

Input line: Please let me know the test result on file for COc1cccc(COc2cc(-n3cnc4ccccc43)sc2C(N)=O)c1 .
Output line: inactive

Input line: Record request — test call for O=C1c2ccccc2-c2c1c1c(NCCCO)nc3ccccc3c1n2Cc1ccccc1
Output line: inactive

* * *

Test system: HOP-62 NSCLC
Assay: NCI tumour cell line growth inhibition, 48 h; in the data active = GI50 below about 0.43 µM; inactive = the rest
Field 'call' accepts 1.0 (active), 0.0 (inactive)

O=C(NCCN1CCNCC1)c1ccc(Nc2nc3ccccc3c3occc23)cc1 | 0.0
COc1cccc(COc2cc(-n3cnc4ccccc43)sc2C(N)=O)c1 | 0.0
c1cnn2ncc(-c3ccnc(Nc4ccc5c(c4)OCCO5)n3)c2c1 | 1.0
Cc1cc2c(cc1Cl)S/C(=C/C(=O)O)C(Nc1cccc3nsnc13)=NS2(=O)=O | 0.0

Note: attention shifts to another entry.
Input line: # lookup: test call for COc1ccc(Nc2nccc(N3CCN(c4c5ccc(Cl)cc5nc5ccc(OC)cc45)CC3)n2)cc1
Output line: 0.0

* * *

Tested on: ACHN renal
Assay: NCI tumour cell line growth inhibition, 48 h
Listing of entries alongside the reported TGI.

Per the record, O=C(NCCN1CCNCC1)c1ccc(Nc2nc3ccccc3c3occc23)cc1 has TGI of 36 µM

In plain terms, O=C(OCC1OC(n2nc(Cn3nnc(-c4cccnc4)n3)n(-c3cccc4ccccc34)c2=S)C(OC(=O)c2ccccc2)C1OC(=O)c1ccccc1)c1ccccc1 (stereo not given) has a documented TGI of > 100 µM

The compound listed as Clc1ccc(/C(=C\c2ccccc2)Cn2ccnc2)cc1 has a reported TGI of 67.6 µM

In plain terms, CC1=NN(C(=O)c2ccncc2)C(=O)C1N=Nc1ccc(F)cc1 (stereo not given) has a documented TGI of > 100 µM

Briefly, TGI measured for Cc1c(C)c(CC(=O)N2CC2)c(C)c(C)c1CC(=O)N1CC1 : 25.7 µM

* * *

System: MALME-3M melanoma
Assay: NCI tumour cell line growth inhibition, 48 h
Response field class: string, computed from recorded TGI by ranges low end = under 3 µM, middle = from 3 µM up to 70 µM, high end = 70 µM and over

COc1ccc(-c2c(C3=NCCCN3)nnn2-c2ccc([N+](=O)[O-])cc2)cc1 | high end

Input line: Input Clc1ccc(/C(=C\c2ccccc2)Cn2ccnc2)cc1 ; output its category
Output line: middle

Input line: # classify by TGI band: O=C(O)CN(CC(=O)O)C(C(=O)O)c1ccccc1 (stereo unspecified)
Output line: high end

These entries and their values trace back to PubChem BioAssay (NCI).
